// reported IC50 for each item listed
- tgt: SIK1 kinase (aa1-303, Thermo Fisher) (Homo sapiens, UniProt P57059)
- Construct: SIK1 kinase (aa1-303, Thermo Fisher); purchased Thermo Fisher
- Sequence (P57059 1-303): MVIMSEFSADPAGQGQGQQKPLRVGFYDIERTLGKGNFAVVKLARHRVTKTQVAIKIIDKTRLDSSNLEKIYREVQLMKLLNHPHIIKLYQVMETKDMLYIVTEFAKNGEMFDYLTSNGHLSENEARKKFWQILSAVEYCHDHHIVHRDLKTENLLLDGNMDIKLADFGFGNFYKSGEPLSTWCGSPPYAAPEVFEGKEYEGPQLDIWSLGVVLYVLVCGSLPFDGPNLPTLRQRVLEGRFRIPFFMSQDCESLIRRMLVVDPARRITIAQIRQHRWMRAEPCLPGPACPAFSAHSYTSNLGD
- assay comment: Biochemical activities determination for SIK1 protein (TR-FRET)
- study conditions: 110 uM ATP, 0.5 μM STK1 substrate

Field: example entries. Status: answers known.
{"compound": "COc1cc(-c2coc3cc(OCCN4CCCCC4)ccc23)cc2c1C(=O)N(CC(F)(F)F)CC2 [Compound 64]", "IC50": "> 10000 nM"}
{"compound": "COc1ccc(-c2ccc3c(-c4cc5c(c(OC)c4)C(=O)N(CC(F)(F)F)CC5)coc3c2)cn1 [Example 9]", "IC50": "> 10000 nM"}

Please find the next compound below.
Entry COc1cc(-c2coc3cc(-c4ccc(C)nn4)ccc23)cc2c1C(=O)N(CC(F)(F)F)CC2 [Example 8] has what IC50?
> 10000 nM

Data credit: patent US20260085053A1
